target.desc: recombinant human ALK5 (TGF-βR1) protein (Homo sapiens, UniProt P36897)
Sequence (P36897 34-503): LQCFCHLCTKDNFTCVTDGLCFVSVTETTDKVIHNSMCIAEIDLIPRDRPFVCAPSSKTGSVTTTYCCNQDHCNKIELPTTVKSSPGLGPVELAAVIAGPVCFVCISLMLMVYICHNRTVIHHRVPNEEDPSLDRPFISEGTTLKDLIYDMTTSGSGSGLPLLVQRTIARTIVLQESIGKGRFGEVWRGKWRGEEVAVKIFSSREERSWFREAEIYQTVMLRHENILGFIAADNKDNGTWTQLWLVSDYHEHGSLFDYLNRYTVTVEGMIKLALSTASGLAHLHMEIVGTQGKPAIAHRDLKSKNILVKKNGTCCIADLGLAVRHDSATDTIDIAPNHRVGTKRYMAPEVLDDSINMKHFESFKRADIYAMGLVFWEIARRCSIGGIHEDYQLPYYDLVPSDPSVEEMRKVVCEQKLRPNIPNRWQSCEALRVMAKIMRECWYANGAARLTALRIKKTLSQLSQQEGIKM
protocol.summary: Biochemical ALK5 (TGF-βR1) assay to measure pKi (LANCE Ultra ULight kinase assay)
stated.conditions: apparent pKi, converted from pIC50 by Cheng-Prusoff
Protocol: The assays were performed in a 384-well plate (24 columns×16 wells/rows). An Echo®550 Liquid Handler (Labcyte) was used to prepare various intermediate concentrations of compounds of the present disclosure in 100% DMSO. […] For dose-response analyses, percent inhibition versus compound concentrations were plotted, and pIC50 values were determined from a 4-parameter robust fit model with GraphPad Prism V5 Software (GraphPad Software, Inc., La Jolla, CA). […]
Measured Ki accompanies every entry in the list below.

Sample answers from the record:
# molecule, target.desc, result
records = [
    ("CNC(=O)[C@H]1CN(Cc2ccc(Nc3nccc(Nc4ccnc(-c5cccc(C)n5)n4)n3)cc2)CCN1", "recombinant human ALK5 (TGF-βR1) protein (Homo sapiens, UniProt P36897)", "0.0398 to 0.316 nM"),
    ("Cc1cccc(-c2nccc(Nc3ccnc(Nc4ccc(C5CCCNC5)cc4)n3)n2)n1 (centres unmarked)", "recombinant human ALK5 (TGF-βR1) protein (Homo sapiens, UniProt P36897)", "0.0398 to 0.316 nM"),
    ("Cc1cccc(-c2nccc(Nc3ccnc(Nc4ccc(F)c(CN5CCNCC5)c4)n3)n2)n1", "recombinant human ALK5 (TGF-βR1) protein (Homo sapiens, UniProt P36897)", "0.0398 to 0.316 nM"),
]

Tell me the measured Ki of Cc1cccc(-c2nccc(Nc3ccnc(Nc4ccc(NC(=O)C5(O)CNC5)cc4)n3)n2)n1 , please. 0.0398 to 0.316 nM

Same question, Cc1cccc(-c2nccc(Nc3ccnc(Nc4ccc(C5=CCNCC5)cc4)n3)n2)n1 this time 0.0398 to 0.316 nM

Reference source: patent US20230399312A1
